Provenance of the data: PubChem BioAssay (NCI)

test system: A549 NSCLC; assay: NCI tumour cell line growth inhibition, 48 h; in the data active = GI50 below about 0.43 µM; inactive = the rest
Entry note: the call must match one of class 1 (active), class 0 (inactive)

Use the examples below as a reference point.
COc1cc(-c2nc3ccccc3[nH]2)ccc1OCC(=O)N=Nc1c(O)[nH]c2ccc(Cl)cc12 = class 0
COc1ccc(C2=CC(c3ccc(Oc4ccnc5cc(Cl)ccc45)c(OC)c3)c3c(nc(OC)[nH]c3=O)N2)cc1 (stereo not given) = class 0
COc1nc2c(cc1S(=O)(=O)c1ccccc1)CCc1c-2cnn1Cc1ccccc1 = class 0

Next item in the queue.
Can you look up the reported call for CCN1CCC2(CC1)NC(=O)c1c(c3ccc(Cl)c(Cl)c3n1C)C2C#N (stereo not given) for me?
class 0

====

test system: HL-60(TB) leukemia; assay: NCI tumour cell line growth inhibition, 48 h
Each record here notes measured log10(TGI).
Heads up, the numbers here are log10 of TGI in µM units.

COc1cc2cn3c4ccc(O)cc4nc(N)c3c2cc1OC = 0.38
CN(C)Cc1cc(N=Nc2ccccc2Cl)ccc1O = 1.47
C=C(C)[C@@H]1CC[C@]2(C(=O)Nc3ccccn3)CC[C@]3(C)[C@H](CC[C@@H]4[C@@]5(C)CCCNC(C)(C)[C@@H]5CC[C@]43C)[C@@H]12 = 0.63
Cc1cc(Nc2cc(CN3CCOCC3)c3nc(C)c(Cc4ccc(Cl)cc4F)n3n2)n[nH]1 = 0.46
Fc1c[c-]c(-c2ccccn2)c(F)c1.[CH3-].[Pt+2].c1ccc([PH+](c2ccccc2)c2ccccn2)cc1 = 0.86

For the next question, use this molecule.
Any idea what log10(TGI) was measured for COc1cc(/C=C2\CCCC3C2=Nc2ccccc2NC3c2cc(OC)c(OC)c(OC)c2)cc(OC)c1OC (stereo not given) ?
0.70

====

test system: M14 melanoma; test: NCI tumour cell line growth inhibition, 48 h
Decide using TGI: a value greater than or equal to 20 µM is True, a smaller one is False.

Use the examples below as a reference point.
CCc1cccc(CC)c1Nc1nc2c(s1)C(=O)c1ccccc1C2=O = True
CC(=O)OCC1OC(O[C@@H]2C[C@H]3C(C)(C)[C@H](OC(C)=O)CC[C@]3(C)[C@H]3CC[C@]4(C)C(=CC[C@H]4[C@@H](C)C[C@@H](O)[C@H](O)C(C)(C)O)[C@@]32C)C(O)C(O)C1O (stereo partly drawn) = True
Cc1cc(S(N)(=O)=O)c(S/C(=N\Nc2ccc([N+](=O)[O-])cc2)c2ccc(O)cc2)cc1Cl = False

State whether the measured TGI reaches 20 µM, counting equality as reaching it, for CSC1=C(C#N)C(=O)N(c2ccc(Cl)cc2)C(=O)C1C#N (stereo not drawn)
True

State whether the measured TGI reaches 20 µM, counting equality as reaching it, for `CN(C)C(=S)/N=c1\ssc(=S)n1-c1ccccc1`
True

State whether the measured TGI reaches 20 µM, counting equality as reaching it, for `COc1ccc2c(O)c(/C=C3\N=Nc4ncccc43)oc2c1C[C@H]1CCNC[C@H]1F`
False

State whether the measured TGI reaches 20 µM, counting equality as reaching it, for `COC(=O)CCCC(=O)NC1=C(Nc2ccccc2)C(=O)c2ccccc2C1=O`
True

State whether the measured TGI reaches 20 µM, counting equality as reaching it, for OC12CC3c4ccccc4NC3C3Oc4cccc5c4C31CCN(CC1CC1)C2C5 (stereo not drawn)
True

====

Each record here notes measured TGI.
test system: K-562 leukemia; assay: NCI tumour cell line growth inhibition, 48 h

# example entries with known answers
CSC1=Nc2c(c(C)c(-c3ccccc3)n2CCCCl)C2=NC(=O)CN12 = > 100 µM
COc1nc2c(cc1S(=O)(=O)c1ccccc1)CCc1c-2cnn1Cc1ccccc1 = > 100 µM
Nc1cc(S(=O)(=O)O)cc2cc(S(=O)(=O)O)c(N=Nc3ccc(-c4ccc(N=Nc5c(S(=O)(=O)O)cc6cc(S(=O)(=O)O)cc(N)c6c5O)cc4)cc3)c(O)c12 = > 100 µM
CC[C@@]1(O)C[C@H](OC2CC(N(C)C)C(OC3CC(O)C(OC4CCC(=O)C(C)O4)C(C)O3)C(C)O2)c2c(cc3c(c2O)C(=O)c2c(O)ccc(O)c2C3=O)[C@H]1C(=O)OC (some centres undefined) = 0.119 µM
CC(N)(Cc1c[nH]c2ccccc12)C(=O)O (centres undefined) = > 2500 µM

Any idea what TGI was measured for C[N+]1(C)CCOC(O)(c2ccccc2)C1 (centres undefined) ?
> 100 µM

Any idea what TGI was measured for `c1ccc(CCCC2Sc3cccc4cccc(c34)S2)cc1` ?
> 100 µM

Any idea what TGI was measured for COc1ccc2c(c1)CCC(CN1CCN(CCOC(c3ccc(F)cc3)c3ccc(F)cc3)CC1)C2O (centres undefined) ?
45 µM

Any idea what TGI was measured for CC(C)c1cccc(C(C)C)c1NC(=O)C(=O)CC(=O)CC(c1ccccc1)c1c(O)c2ccccc2oc1=O (centres undefined) ?
> 100 µM

Any idea what TGI was measured for `COc1ccc2[nH]c(-c3ccccc3)c(C=C(C#N)C#N)c2c1` ?
> 100 µM

Any idea what TGI was measured for CCOC(=O)C12CCSC1C1(C#N)C(C#N)=CC2(N=P(c2ccccc2)(c2ccccc2)c2ccccc2)n2c(=O)n(-c3ccccc3)c(=O)n21 (centres undefined) ?
> 100 µM

Any idea what TGI was measured for CC1(C(=O)NCCN(CCNC(=O)C2(C)CC3(C)CC(C)(C2)C(=O)NC3=O)CCNC(=O)C2(C)CC3(C)CC(C)(C2)C(=O)NC3=O)CC2(C)CC(C)(C1)C(=O)NC2=O (centres undefined) ?
> 100 µM

Any idea what TGI was measured for NC(=S)N/N=C1\C(=O)N(CCc2ccccc2)C(=O)C1C(=O)NCCc1ccccc1 (centres undefined) ?
> 100 µM

Any idea what TGI was measured for `OC(Cc1ccccc1)(Cc1ccccc1)c1ccccc1` ?
> 100 µM

Any idea what TGI was measured for `COc1cccc2c1nc1cccc(OC)c1[n+]2[O-]` ?
26.6 µM

Any idea what TGI was measured for `CC(C)(C)CC(C)(C)N(CSc1ccc(Cl)cc1)CSc1ccc(Cl)cc1` ?
26 µM

Any idea what TGI was measured for `C/C(=C1/N=C(c2ccccc2)OC1=O)c1ccc(C)cc1` ?
> 100 µM

Any idea what TGI was measured for `CNS(=O)(=O)c1ccccc1C(=N)c1ccccc1` ?
> 100 µM

Any idea what TGI was measured for `Cc1c2cnccc2c(C)c2c1c1cc(C(=O)O)ccc1n2C` ?
> 100 µM

Any idea what TGI was measured for `CC1(C)C(=O)N(O)C(C)(C)N1N=O` ?
> 10 µM

Any idea what TGI was measured for `COc1ccc([C@@H]2CC(=O)NCCCNCCCCNCCCN2)cc1` ?
> 100 µM

Any idea what TGI was measured for `C=CC(=O)NCCOc1cccc(Nc2cc(NCCCNC(=O)C3CCC3)c(Br)cn2)c1` ?
> 25 µM

Any idea what TGI was measured for Cc1cc(O)c(C2=NN(c3ccc(S(N)(=O)=O)cc3)C(c3ccccc3O)C2)cc1Cl (centres undefined) ?
7.93 µM

Any idea what TGI was measured for `Cc1cc(C)c(S(=O)(=O)N(CCCCCCN)OCCCN)c(C)c1` ?
> 100 µM

Any idea what TGI was measured for COc1ccc(C2=CC(c3ccc(Oc4ccnc5cc(Cl)ccc45)c(OC)c3)c3c(nc(OC)[nH]c3=O)N2)cc1 (centres undefined) ?
> 100 µM

Any idea what TGI was measured for `O=[N+]([O-])c1cccc(/C=C/c2ccccn2)c1` ?
> 100 µM

Any idea what TGI was measured for `COc1ccc(N2CCN(CN3CCN(c4ccc(OC)cc4)C3)C2)cc1` ?
52.7 µM

Any idea what TGI was measured for OC(COc1cccc2ccccc12)CN1CCN(c2ccc(Cl)cc2)CC1 (centres undefined) ?
> 100 µM

Any idea what TGI was measured for COc1cc(C(C#N)NNC(=O)Cc2ccccc2)cc(OC)c1OC (centres undefined) ?
> 100 µM

Any idea what TGI was measured for `Nc1c(S(=O)(=O)O)cc(Nc2cccc(S(N)(=O)=O)c2)c2c1C(=O)c1ccccc1C2=O` ?
> 100 µM

Any idea what TGI was measured for `COC(=O)CCCC(=O)NC1=C(Nc2ccccc2)C(=O)c2ccccc2C1=O` ?
47.3 µM

Any idea what TGI was measured for `O=C1N[C@H]2C(=O)c3c(Cl)sc(Cl)c3[C@H]2O1` ?
5.09 µM

Any idea what TGI was measured for `Fc1c[c-]c(-c2ccccn2)c(F)c1.[CH3-].[Pt+2].c1ccc([PH+](c2ccccc2)c2ccccn2)cc1` ?
> 100 µM

Any idea what TGI was measured for `c1cc2[nH]snc2c2cncc12` ?
> 100 µM

====

tested on: MCF7 breast; experiment: NCI tumour cell line growth inhibition, 48 h
RECORDED ENDPOINT: TGI (µM)
Response body: numeric value in µM, unit text excluded.

C[C@@H]1[C@H]2[C@H](C=C3[C@@H]4CC[C@H]5Cc6nc7c(nc6C[C@]5(C)[C@H]4C[C@@H](O)[C@@]32C)C[C@@H]2CC[C@H]3C4=C[C@@H]5O[C@@]6(CC[C@](C)(CO)O6)[C@@H](C)[C@@]5(O)[C@@]4(C)[C@H](O)C[C@@H]3[C@@]2(C)C7)O[C@]12CCC(C)(C)O2 = 15.3
COc1cc(CNc2nc3ccccc3n2Cc2ccccc2)cc(CN2CCOCC2)c1O = 79.5
O=S(=O)(CC#CCCCOCC#Cc1ccccc1C#CCS(=O)(=O)c1ccccc1)c1ccccc1 = 35.3

Any idea what TGI was measured for `COc1cc(/C=C2\N=C(c3ccccc3)N(c3nc4cc(C)c(C)cc4s3)C2=O)cc(OC)c1OC` ?
43
